Target: T1, human GPVI protein, soluble extracellular domain (D1 and D2) (human, UniProt Q9HCN6 21-267)
T1 construct: extracellular domain; also called hGPVI; human glycoprotein VI
T1 sequence (looked up): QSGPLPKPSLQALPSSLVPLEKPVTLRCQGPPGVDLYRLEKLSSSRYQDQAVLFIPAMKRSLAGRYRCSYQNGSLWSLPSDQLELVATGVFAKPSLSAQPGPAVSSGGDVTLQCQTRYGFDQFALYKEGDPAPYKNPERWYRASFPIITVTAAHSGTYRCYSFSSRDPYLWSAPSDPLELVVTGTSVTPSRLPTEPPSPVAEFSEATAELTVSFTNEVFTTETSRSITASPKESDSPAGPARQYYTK
Assay: SPR (Biacore 3000), human GPVI immobilised, Fab analyte
What koff was measured for each of the following?
Quick reminder: number only, in s⁻¹, skip the unit.

### Prompt Give me measured koff, please, for this binder: humanized anti-GPVI Fab VL3/VH2 (Fab, V domains shown, Recombinant Fab: VH fused to CH1 of human IGHG1 (Q569F4), HC ends in DKTHT; VL fused to human constant kappa (Q502W4); also called VL3 with VH2) VH: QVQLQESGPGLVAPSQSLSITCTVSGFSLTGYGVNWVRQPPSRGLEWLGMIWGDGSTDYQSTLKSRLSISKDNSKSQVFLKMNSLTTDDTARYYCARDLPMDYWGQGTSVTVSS VL: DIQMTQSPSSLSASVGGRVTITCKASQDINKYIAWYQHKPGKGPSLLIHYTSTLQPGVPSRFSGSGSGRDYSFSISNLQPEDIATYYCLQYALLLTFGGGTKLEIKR
### Response 3e-05

### Prompt Give me measured koff, please, for this binder: humanized anti-GPVI Fab VL1/VH4 (Fab, V domains shown, Recombinant Fab: VH fused to CH1 of human IGHG1 (Q569F4), HC ends in DKTHT; VL fused to human constant kappa (Q502W4); also called VL1 with VH4) VH: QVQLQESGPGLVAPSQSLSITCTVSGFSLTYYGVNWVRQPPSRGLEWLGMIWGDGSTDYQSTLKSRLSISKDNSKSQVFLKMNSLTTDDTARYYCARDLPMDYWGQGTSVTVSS VL: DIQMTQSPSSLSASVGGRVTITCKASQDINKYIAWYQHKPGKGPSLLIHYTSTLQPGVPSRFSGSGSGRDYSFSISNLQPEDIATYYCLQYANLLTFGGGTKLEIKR
### Response 2e-05

### Prompt Give me measured koff, please, for this binder: humanized anti-GPVI Fab VL3/VH4 (Fab, V domains shown, Recombinant Fab: VH fused to CH1 of human IGHG1 (Q569F4), HC ends in DKTHT; also called VL3 with VH4) VH: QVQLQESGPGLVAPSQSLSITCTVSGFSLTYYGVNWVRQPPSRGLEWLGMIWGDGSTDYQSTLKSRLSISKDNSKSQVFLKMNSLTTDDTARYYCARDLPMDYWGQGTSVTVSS VL: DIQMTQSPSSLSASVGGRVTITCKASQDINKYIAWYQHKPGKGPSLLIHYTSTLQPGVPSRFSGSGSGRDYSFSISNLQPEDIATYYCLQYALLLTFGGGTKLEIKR
### Response 4e-05

### Prompt Give me measured koff, please, for this binder: humanized anti-GPVI Fab VL1/VH5 (Fab, V domains shown, Recombinant Fab: VH fused to CH1 of human IGHG1 (Q569F4), HC ends in DKTHT; VL fused to human constant kappa (Q502W4); also called VL1 with VH5) VH: QVQLQESGPGLVAPSQSLSITCTVSGFSLTGYGVNWVRQPPSRGLEWLGMIWGDGSTDYQSTLKSRLSISKDNSKSQVFLKMNSLTTDDTARYYCARDLPMDEWGQGTSVTVSS VL: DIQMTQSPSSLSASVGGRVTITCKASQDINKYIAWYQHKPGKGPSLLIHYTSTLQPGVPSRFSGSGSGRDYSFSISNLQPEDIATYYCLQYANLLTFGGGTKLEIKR
### Response 3e-05

### Prompt Give me measured koff, please, for this binder: Fab 390-nG (recombinant non-glycosylated Fab of clone 390) (Fab, V domains shown, Chimeric Fab from HEK293: VL fused to human constant kappa (IGKC, Q502W4); also called ANTI-GPVI Fab 390-nG construct) VH: QVQLKESGPGLVAPSQSLSITCTVSGFSLTGYGVNWVRQPPGKGLEWLGMIWGDGSTDYQSTLKSRLSISKDNSKSQVFLKMNSLQTDDTARYYCARDLPMDYWGQGTSVTVSS VL: DIQMTQSPSSLSASLGGKVTITCKASQDINKYIAWYQHKPGKGPSLLIHYTSTLQPGIPSRFSGSGSGRDYSFSISNLEPEDIATYYCLQYANLLTFGGGTKLEIKR
### Response 2e-05
